# TARGET_OF_ASSAY: human CD33 N76A (human, UniProt P20138 18-364)
# Sequence (P20138 18-364 N76A limits assumed): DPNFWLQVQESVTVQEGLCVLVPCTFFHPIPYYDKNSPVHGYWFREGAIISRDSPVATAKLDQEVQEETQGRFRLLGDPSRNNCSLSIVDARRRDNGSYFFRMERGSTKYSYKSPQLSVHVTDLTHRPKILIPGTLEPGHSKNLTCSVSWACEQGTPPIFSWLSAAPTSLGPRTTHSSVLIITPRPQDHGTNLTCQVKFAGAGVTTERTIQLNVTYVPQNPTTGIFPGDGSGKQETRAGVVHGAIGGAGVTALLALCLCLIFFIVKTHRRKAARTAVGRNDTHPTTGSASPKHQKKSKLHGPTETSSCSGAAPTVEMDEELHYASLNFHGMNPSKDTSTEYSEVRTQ
# ASSAY: alanine scan, flow cytometry;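 also: HEK293-T cells transiently expressing single-residue alanine mutants of CD33 (alanine swapped to serine), antibody binding read by fluorescence in duplicate, background-subtracted, expressed relative to wild-type CD33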
Each item that follows carries a reported Mean % WT Binding.

{"BINDER": "Refmab #4 (antibody, V domains shown, Full-length format is human IgG1 Fc silent (PG-LALA); The alanine scan used IgG or Fab) VH: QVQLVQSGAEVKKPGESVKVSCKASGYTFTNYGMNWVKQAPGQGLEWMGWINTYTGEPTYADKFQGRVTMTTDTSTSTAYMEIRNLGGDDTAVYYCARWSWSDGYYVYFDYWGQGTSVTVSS VL: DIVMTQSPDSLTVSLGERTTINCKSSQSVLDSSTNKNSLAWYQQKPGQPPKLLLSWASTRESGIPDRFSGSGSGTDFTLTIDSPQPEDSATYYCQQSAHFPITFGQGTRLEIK", "Mean % WT Binding (% WT)": 34.7}
{"BINDER": "Refmab #1 (antibody, V domains shown, Full-length format is human IgG1 (Absolute Antibody Ab00283-10.0); The alanine scan used IgG or Fab; also called hP67.6) VH: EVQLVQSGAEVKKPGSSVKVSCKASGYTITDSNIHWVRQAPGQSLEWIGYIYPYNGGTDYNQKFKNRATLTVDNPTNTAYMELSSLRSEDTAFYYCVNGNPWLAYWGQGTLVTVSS VL: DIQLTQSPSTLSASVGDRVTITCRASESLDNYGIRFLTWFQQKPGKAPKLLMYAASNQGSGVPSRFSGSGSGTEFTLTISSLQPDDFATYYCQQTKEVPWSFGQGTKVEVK", "Mean % WT Binding (% WT)": 61.8}
{"BINDER": "Refmab #3 (antibody, V domains shown, Full-length format is human IgG1 Fc silent (PG-LALA); The alanine scan used IgG or Fab) VH: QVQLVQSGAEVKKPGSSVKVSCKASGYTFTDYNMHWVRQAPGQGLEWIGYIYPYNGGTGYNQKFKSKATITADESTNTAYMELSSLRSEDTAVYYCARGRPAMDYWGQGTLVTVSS VL: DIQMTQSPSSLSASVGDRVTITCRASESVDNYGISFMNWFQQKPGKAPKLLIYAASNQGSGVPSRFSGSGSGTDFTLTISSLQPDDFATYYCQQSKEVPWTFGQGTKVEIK", "Mean % WT Binding (% WT)": 148}

Value source: patent US20260242735A1
